Molecular target: T1, human LAG-3 (cell surface) (human, UniProt P18627 23-525)
T1 construct: whole, on cells; also called CHO-human LAG-3
T1 sequence (looked up): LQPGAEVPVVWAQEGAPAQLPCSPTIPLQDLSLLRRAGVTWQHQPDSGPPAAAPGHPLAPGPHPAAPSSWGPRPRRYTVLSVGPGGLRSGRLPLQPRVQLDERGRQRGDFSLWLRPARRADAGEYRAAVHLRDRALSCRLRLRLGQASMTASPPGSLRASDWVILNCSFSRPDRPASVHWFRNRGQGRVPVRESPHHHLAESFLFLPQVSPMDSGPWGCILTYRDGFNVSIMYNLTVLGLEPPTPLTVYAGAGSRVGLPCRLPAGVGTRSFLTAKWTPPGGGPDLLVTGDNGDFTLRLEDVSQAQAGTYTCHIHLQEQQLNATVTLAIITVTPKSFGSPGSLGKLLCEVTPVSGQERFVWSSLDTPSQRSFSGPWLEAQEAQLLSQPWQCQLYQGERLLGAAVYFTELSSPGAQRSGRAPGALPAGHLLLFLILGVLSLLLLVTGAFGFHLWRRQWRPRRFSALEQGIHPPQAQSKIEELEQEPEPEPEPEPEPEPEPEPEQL
Assay: flow cytometry, CHO cells expressing human LAG-3
Recorded EC50 for the following binders

Solved entries (count: 3):
For the binder 25F7 human monoclonal antibody (antibody, IgG1, V domains shown, also called 25F7-FITC (IgG1 version)) VH: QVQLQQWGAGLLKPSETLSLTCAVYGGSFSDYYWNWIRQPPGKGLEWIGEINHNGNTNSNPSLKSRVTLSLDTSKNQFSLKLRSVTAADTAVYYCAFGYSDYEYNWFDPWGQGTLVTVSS VL: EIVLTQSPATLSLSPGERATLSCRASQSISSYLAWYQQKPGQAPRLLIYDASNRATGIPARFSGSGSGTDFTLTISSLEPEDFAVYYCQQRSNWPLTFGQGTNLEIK , give its measured EC50 value. 0.45 to 2.52 nM

For the binder 8B7 human monoclonal antibody (antibody, IgG4, V domains shown, also called 8B7-FITC) VH: QVQLQQWGAGLLKPSETLSLTCAVYGGSFSGYYWSWIRQPPGKGLEWIGEINHRGNTNCNPSLKSRVTISGDTSKKQFALKLNSVTAADTAVYYCARGYDILTGYYEDSWGPGTLVTVSS VL: EIVLTQSPATLSLSPGERATLSCRASQSVSSYLAWYQQKPGQAPRLLIYNASNRATGIPARFSGSGSGTDFTLTISSLEPEDFAVYYCQQRSNWPLTFGGGTKVEIK , give its measured EC50 value. 1.93 to 4.44 nM

For the binder 11F2 human monoclonal antibody (antibody, IgG2, V domains shown) VH: QVQLVQSGAEVKKPGASVKVSCKVSGYTLTEVSMHWVRQAPGKGLEWMGGFDPEDGETIYAQKFQGRVTMTEDTSTDTAYMELSSLRSEDTAVYYCATAFVVVVAASDYWGQGTLVTVSS VL: EIVLTQSPATLSLSPGERATLSCRASQSVSSYLAWYQQKPGQAPRLLIYDASNRATGIPARFSGSGSGTDFTLTISSLEPEDFAVYYCQQRSNWPWTFGQGTKVEIK , give its measured EC50 value. 15.1 nM

Moving on to another binder below.
For the binder 25E3 human monoclonal antibody (antibody, IgG1, V domains shown) VH: EVQLVESGGGVVRPGGSLRLSCAASGFTFDDYGMSWVRQAPGKGLEWVSGINWNGGSTYYADSVKGRFTISGDNAKNSLYLQMNSLRAEDTALYYCTTGGYWGQGTLVTVSS VL: AIQLTQSPSSLSASVGDRVTITCRASQGIRSALAWYQQKPGKAPKLLIYDASSLESGVPSRFSGSGSGTDFTLTISSLQPEDFATYYCQQFNSYPYTFGQGTKLEIK , give its measured EC50 value. 14.9 to 25.4 nM
